Catalogue of compounds with associated TGI
system: SK-MEL-5 melanoma; assay: NCI tumour cell line growth inhibition, 48 h
observable: TGI (nM)

1) C#Cc1nc(N)c2ncn(C3OC(COS(N)(=O)=O)C(O)C3O)c2n1 (stereo not given) | 344
2) C=C(C(=O)OC1C(CO)OC(OCC2CC[C@@H]3C[C@]4(OC(=O)C3=C)C(C)=CC(=O)C24)C(O)C1O)[C@@H]1CCC(CO)C2C(=O)C=C(C)[C@@]2(O)C1 (stereo not given in full) | 2750

###

tested on: HS 578T breast; experiment: NCI tumour cell line growth inhibition, 48 h
Catalogue of compounds with associated TGI
observable: TGI

1. CCOC(=O)c1ccc2c(c1)c1c(C)c3cnccc3c(C)c1n2C | 0.9 µM
2. CC#CC#Cc1cccc(=O)o1 | 81.4 µM
3. O=C(O)c1ccc(C=C2Sc3ccccc3S2)cc1 | > 100 µM
4. OC1(c2ccccc2)CSc2ncnn21 (configuration not stated) | > 100 µM
5. C/C(O)=c1\cc(C#N)c(=C(C#N)C#N)nc1C | > 100 µM
6. Cc1ccc(/C=C2\CN(C)CC3=C2NC(=S)NC3c2ccc(C)cc2)cc1 (configuration not stated) | > 100 µM
7. COc1ccc([C@H]2[C@H](C)C3=Nc4ccccc4CN32)cc1 | > 100 µM
8. O=C(O)CCC(N=C(C(=NC(CCC(=O)O)C(=O)O)c1ccccc1)c1ccccc1)C(=O)O (configuration not stated) | > 100 µM
9. Cc1nc2nn[nH]n2c(=O)c1CCO | > 100 µM
10. c1ccc(N2CCN(CN3CCN(c4ccccc4)C3)C2)cc1 | > 100 µM
11. CC(=O)Oc1cc2oc(=O)cc(C)c2cc1OC(C)=O | > 100 µM
12. Cc1ccc2ccc(O)cc2c1 | > 100 µM
